# tgt: IKKε (Homo sapiens)
# Construct: TBK1 and IKKε were expressed and purified as full length recombinant proteins
# Sequence (Q14164 whole entry): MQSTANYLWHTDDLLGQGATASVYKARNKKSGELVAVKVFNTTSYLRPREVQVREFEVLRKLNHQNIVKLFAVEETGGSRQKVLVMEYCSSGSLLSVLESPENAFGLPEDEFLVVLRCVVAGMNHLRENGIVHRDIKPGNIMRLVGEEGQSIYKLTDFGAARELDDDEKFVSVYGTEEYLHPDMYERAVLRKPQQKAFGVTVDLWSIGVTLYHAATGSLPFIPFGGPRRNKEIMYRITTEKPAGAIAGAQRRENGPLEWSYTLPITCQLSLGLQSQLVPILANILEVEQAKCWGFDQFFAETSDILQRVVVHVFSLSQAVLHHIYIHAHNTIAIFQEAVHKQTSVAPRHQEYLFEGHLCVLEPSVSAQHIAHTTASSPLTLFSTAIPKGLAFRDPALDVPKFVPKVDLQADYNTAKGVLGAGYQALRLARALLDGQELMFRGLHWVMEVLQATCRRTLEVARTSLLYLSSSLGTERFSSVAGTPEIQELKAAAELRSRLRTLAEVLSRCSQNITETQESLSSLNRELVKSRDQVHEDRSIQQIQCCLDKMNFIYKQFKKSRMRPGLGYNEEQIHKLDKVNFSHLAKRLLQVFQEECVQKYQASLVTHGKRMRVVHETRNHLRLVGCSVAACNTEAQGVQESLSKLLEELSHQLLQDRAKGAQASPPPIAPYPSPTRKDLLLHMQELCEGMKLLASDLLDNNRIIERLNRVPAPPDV
# experiment: TR-FRET enzymatic activity assay, IKKε; note: full length recombinant IKKε at 0.3 nM
# condition.label: read-out: IKKϵ IC50
# key: entry, value: pIC50
# log scale: pIC50 equals minus log10 of the concentration in mol/L

## Task Give IKKε (Homo sapiens) pIC50 for N#Cc1cc(-c2ccnc(NC(=O)C3CC3)c2)ccc1N1CCC[C@H]1CO
## Result 6.29

Next:
## Task Could you share what pIC50 was measured for N#Cc1cc(-c2cc(NC(=O)C3CC3)ncc2F)ccc1OC1CCOCC1 , tested on IKKε (Homo sapiens)?
## Result 6.48

## Task Find the measured pIC50: item N#Cc1cc(-c2ccnc(NC(=O)[C@@H]3C[C@H]3c3ccno3)c2)ccc1OC1CCOCC1 (relative stereo) , target or system IKKε (Homo sapiens).
## Result 6.71

## Task Look up pIC50 with IKKε (Homo sapiens) for this compound: Cc1cc([C@@H]2C[C@H]2C(=O)Nc2cc(-c3ccc(OC4CCOCC4)c(C#N)c3)ccn2)on1 (relative stereo)
## Result 6.57

## Task What reported pIC50 corresponds to C[C@H](N)C(=O)OCC(=O)N1CC[C@H](Oc2ccc(-c3cc(NC(=O)C4CC4)ncn3)cc2C#N)C(F)(F)C1 on IKKε (Homo sapiens)?
## Result 7.41

## Task Entry N#Cc1cc(-c2ccnc(NC(=O)[C@@H]3C[C@H]3c3cccnc3)c2)ccc1O[C@H]1CCN(C(=O)[C@@H](O)CO)CC1(F)F [Example 139] , system IKKε (Homo sapiens): what pIC50 was measured?
## Result 7.79

* * *

The following molecules are shown together with reported pIC50 values.
# tgt: TBK1 (Homo sapiens, UniProt Q9UHD2)
# Construct: TBK1 and IKKε were expressed and purified as full length recombinant proteins; made in house
# Sequence (Q9UHD2 whole entry): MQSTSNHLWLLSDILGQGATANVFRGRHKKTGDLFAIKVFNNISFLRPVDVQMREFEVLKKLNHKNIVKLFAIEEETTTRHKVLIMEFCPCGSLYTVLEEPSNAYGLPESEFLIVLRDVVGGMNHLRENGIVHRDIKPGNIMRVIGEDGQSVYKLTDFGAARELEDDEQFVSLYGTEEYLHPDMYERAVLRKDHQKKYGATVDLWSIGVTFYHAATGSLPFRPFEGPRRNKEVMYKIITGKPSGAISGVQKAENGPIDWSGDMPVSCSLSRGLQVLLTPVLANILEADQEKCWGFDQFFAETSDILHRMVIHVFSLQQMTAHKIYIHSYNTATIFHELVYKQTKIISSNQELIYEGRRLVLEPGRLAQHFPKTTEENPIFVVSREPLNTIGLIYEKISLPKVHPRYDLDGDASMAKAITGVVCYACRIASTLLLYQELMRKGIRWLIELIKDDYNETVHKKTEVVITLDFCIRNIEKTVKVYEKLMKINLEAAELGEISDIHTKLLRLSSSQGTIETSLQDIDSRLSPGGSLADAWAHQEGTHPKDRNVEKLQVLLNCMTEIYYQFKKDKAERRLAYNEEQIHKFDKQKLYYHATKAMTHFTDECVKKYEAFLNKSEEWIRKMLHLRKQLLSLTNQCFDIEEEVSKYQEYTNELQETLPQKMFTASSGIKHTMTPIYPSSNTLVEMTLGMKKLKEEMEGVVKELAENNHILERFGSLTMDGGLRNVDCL
# experiment: TR-FRET enzymatic activity assay, TBK1; note: full length recombinant TBK1 at 2.5 nM
# Type: biochemical
Please report pIC50 as the negative decimal logarithm of the molar concentration, giving only the number.

## Task Give the measured pIC50 of CN(C)C[C@@H]1C[C@H]1C(=O)Nc1cc(-c2ccc(OC3CCOCC3)c(C#N)c2)ccn1 (relative stereo) [Example 41] .
## Result 6.57

## Task Please give the measured pIC50 for this molecule: N#Cc1cc(-c2ccnc(NC(=O)[C@@H]3C[C@H]3C=O)c2)ccc1OC1CCOCC1 (relative stereo) [Example 40]
## Result 7.21

## Task Bench note: what pIC50 did C[C@@H]1CCCN1c1ccc(-c2ccnc(NC(=O)C3CC3)c2)cc1C#N [Example 96] show?
## Result 7.48

* * *

# tgt: IKKε (Homo sapiens)
# Construct: TBK1 and IKKε were expressed and purified as full length recombinant proteins; made in house
# experiment: TR-FRET enzymatic activity assay, IKKε; note: full length recombinant IKKε at 0.3 nM
# Assay type: biochemical
# condition.label: read-out: IKKϵ IC50
# Experimental: Biological Assay for TBK1 and IKKε: Enzymatic activity of IKKε and TBK1 was measured using a homogeneous time resolved fluorescence resonance energy transfer (TR-FRET) assay that monitors enzyme dependent phosphorylation of a biotinylated serine/threonine peptide substrate. […] TBK1 and IKKε were expressed and purified as full length recombinant proteins. Detection reagents for the assay were purchased from Cisbio. […]
readout.type: pIC50
Expect pIC50 as a plain number equal to -log10 of the molar concentration.

Examples from the recorded data:
## Task Need pIC50, item N#Cc1cc(-c2ccnc(NC(=O)[C@H]3C[C@H]3F)c2)ccc1N1CCCC1 [Example 64]
## Result 6.24

## Task Recorded pIC50 for N#Cc1cc(-c2ccnc(NC(=O)C3CC3c3ccco3)c2)ccc1OC1CCOCC1 (stereo not drawn) [Example 51] , please?
## Result 6.37

## Task Request the reported pIC50 associated with Cn1cc(C(=O)N2CC[C@H](Oc3ccc(-c4cc(NC(=O)C5CC5)ncn4)cc3C#N)[C@H](F)C2)nn1 [Example 27]
## Result 7.53

## Task What value of measured pIC50 is listed for Cn1cc([C@@H]2C[C@H]2C(=O)Nc2cc(-c3ccc(O[C@H]4CCN(C(=O)[C@@H](O)CO)C[C@H]4F)c(C#N)c3)ncn2)cn1 [Example 146] ?
## Result 7.51

Next:
## Task For N#Cc1cc(-c2ccnc(NC(=O)[C@H]3C[C@@H]3[N+](=O)[O-])c2)ccc1OC1CCOCC1 (relative stereo) [Example 86] , what is its reported pIC50?
## Result 6.50

## Task Entry under review: N#Cc1cc(-c2cc(NC(=O)C3CC3)ncn2)ccc1O[C@H]1CCN(C(=O)CO)CC1(F)F [Example 20] . Reported pIC50?
## Result 8.02

Every entry's value here was drawn from patent US10316049B2.
